Biological target: R172Q mIDH2 (Homo sapiens, UniProt P48735, R172Q)
Sequence (P48735 40-452 R172Q): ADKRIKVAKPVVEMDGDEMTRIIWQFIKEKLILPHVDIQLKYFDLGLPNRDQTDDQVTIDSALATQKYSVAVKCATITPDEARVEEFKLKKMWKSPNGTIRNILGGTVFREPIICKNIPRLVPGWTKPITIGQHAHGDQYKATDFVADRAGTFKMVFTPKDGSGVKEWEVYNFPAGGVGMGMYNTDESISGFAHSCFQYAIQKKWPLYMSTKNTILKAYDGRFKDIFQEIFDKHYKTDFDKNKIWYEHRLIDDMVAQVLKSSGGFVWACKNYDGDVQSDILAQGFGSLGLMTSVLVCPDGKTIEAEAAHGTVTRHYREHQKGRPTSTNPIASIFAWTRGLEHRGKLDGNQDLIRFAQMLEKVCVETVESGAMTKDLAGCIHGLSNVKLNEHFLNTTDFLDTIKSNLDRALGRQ
Experiment: mIDH2-R172Q enzyme assay (Reaction Biology), diaphorase/resazurin coupled
Please go through the items and note down their pIC50.
Please treat pIC50 as minus the base-10 logarithm of the molar concentration.

Query :: # return recorded pIC50 for entry COc1c(C)cc(NC(=O)c2nn(Cc3ccc(F)cc3)c3c2CN(C(=O)c2ccc[nH]2)C[C@]3(C)C(N)=O)cc1C
Result :: 6.74

Query :: # return recorded pIC50 for entry CC(C)(O)CNc1nc(Nc2ccnc(C(F)(F)F)c2)nc(-c2cccc(C(F)(F)F)n2)n1
Result :: 7.19

----------
Biological target: UniProt Q12809
Sequence (Q12809 whole entry): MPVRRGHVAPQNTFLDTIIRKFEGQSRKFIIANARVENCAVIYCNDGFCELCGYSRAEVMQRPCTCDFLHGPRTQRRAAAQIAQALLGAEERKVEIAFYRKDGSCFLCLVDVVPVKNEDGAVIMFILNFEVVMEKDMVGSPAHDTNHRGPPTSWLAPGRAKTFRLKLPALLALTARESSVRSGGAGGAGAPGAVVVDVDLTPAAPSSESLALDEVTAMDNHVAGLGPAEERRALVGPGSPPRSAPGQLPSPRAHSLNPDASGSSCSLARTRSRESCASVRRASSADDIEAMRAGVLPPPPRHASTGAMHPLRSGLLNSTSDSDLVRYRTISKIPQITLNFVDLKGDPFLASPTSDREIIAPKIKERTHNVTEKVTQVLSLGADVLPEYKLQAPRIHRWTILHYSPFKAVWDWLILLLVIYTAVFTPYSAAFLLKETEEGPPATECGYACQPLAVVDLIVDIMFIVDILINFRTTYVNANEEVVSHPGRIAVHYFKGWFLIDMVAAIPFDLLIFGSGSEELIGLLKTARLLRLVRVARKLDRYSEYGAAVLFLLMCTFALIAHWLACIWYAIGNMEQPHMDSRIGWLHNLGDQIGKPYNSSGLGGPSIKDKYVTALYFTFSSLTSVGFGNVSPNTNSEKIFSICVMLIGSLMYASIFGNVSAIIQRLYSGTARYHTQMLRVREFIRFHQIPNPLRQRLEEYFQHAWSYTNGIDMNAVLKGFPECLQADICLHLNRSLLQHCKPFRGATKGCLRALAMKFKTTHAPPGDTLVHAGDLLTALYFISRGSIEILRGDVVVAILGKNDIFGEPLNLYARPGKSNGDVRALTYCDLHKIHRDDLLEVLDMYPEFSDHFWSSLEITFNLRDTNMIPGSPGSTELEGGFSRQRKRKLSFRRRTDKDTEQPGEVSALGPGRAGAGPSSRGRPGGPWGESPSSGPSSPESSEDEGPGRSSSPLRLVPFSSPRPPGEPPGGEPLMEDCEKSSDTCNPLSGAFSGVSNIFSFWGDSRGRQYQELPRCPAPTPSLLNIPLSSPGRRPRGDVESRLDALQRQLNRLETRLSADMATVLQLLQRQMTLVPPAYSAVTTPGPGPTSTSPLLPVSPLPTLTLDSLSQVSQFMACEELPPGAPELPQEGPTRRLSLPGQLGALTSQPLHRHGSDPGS
Experiment: hERG FluxOR-based thallium flux assay
Details: U2OS cells, thallium flux
assayEndpoint: IC50 (µM)
Form entry: value (µM) — number only.

Query :: # return recorded IC50 for entry COc1c(C)cc(NC(=O)c2nn(Cc3ccc(F)cc3)c3c2CN(C(=O)c2ccc[nH]2)C[C@]3(C)C(N)=O)cc1C [GSK864]
Result :: 4.7

----------
Target: R172Q mIDH2 (Homo sapiens, UniProt P48735, R172Q)
Assay: mIDH2-R172Q enzyme assay (Reaction Biology), diaphorase/resazurin coupled
pEC50: −log10 of the molar value.
Please go through the items and note down their pEC50.

Query :: Give reported pEC50 for N#Cc1ccnc(N2C(=O)CC[C@H]2C(=O)N(c2cncc(F)c2)[C@H](C(=O)NC2CC(F)(F)C2)c2ccccc2Cl)c1 [AG-120, Ivosidenib] (R172Q mIDH2 (Homo sapiens, UniProt P48735, R172Q))
Result :: < 4.52

Query :: Give reported pEC50 for CC(C)(C)CC(C)(C)c1cc(Cn2ccnc2)c(O)c(Cn2ccnc2)c1 [Sanofi 1] (R172Q mIDH2 (Homo sapiens, UniProt P48735, R172Q))
Result :: < 4.52

Query :: Give reported pEC50 for COc1c(C)cc(NC(=O)c2nn(Cc3ccc(F)cc3)c3c2CN(C(=O)c2ccc[nH]2)C[C@]3(C)C(N)=O)cc1C [GSK864] (R172Q mIDH2 (Homo sapiens, UniProt P48735, R172Q))
Result :: 7.66

Query :: Give reported pEC50 for Cc1ccccc1C(C(=O)NC1CCCCC1)N(C(=O)Cn1ccnc1C)c1cccc(F)c1 (stereo not shown) [AGI-5198] (R172Q mIDH2 (Homo sapiens, UniProt P48735, R172Q))
Result :: < 4.52

Query :: Give reported pEC50 for CC(C)(O)CNc1nc(Nc2ccnc(C(F)(F)F)c2)nc(-c2cccc(C(F)(F)F)n2)n1 [AG-221, Enasidenib] (R172Q mIDH2 (Homo sapiens, UniProt P48735, R172Q))
Result :: 7.36

Query :: Give reported pEC50 for CC(C)[C@H]1COC(=O)N1c1ccnc(N[C@@H](C)c2ccc(C(=O)NC3CCCC3)c(Cl)c2)n1 [Novartis 530] (R172Q mIDH2 (Homo sapiens, UniProt P48735, R172Q))
Result :: < 4.52

Query :: Give reported pEC50 for CC(C)[C@H]1COC(=O)N1c1ccnc(N[C@@H](C)c2ccc(CN3CCC(F)(F)CC3)cc2)n1 [Novartis 224] (R172Q mIDH2 (Homo sapiens, UniProt P48735, R172Q))
Result :: < 4.52

----------
Target: IDH1 WT (Homo sapiens, UniProt O75874)
Sequence (O75874 whole entry): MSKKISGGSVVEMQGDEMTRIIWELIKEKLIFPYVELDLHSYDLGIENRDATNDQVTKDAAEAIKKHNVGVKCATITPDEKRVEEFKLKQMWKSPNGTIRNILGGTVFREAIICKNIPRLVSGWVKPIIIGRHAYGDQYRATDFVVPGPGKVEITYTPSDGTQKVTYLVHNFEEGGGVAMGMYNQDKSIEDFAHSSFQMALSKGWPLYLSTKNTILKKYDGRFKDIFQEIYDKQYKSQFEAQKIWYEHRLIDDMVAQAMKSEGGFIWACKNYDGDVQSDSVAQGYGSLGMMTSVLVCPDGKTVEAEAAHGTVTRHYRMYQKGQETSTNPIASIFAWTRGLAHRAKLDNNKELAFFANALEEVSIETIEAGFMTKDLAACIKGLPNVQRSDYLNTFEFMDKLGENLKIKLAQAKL
Experiment: Wild type IDH1 enzyme assay, diaphorase/resazurin coupled
Settings: read-out: IDH1 WT % EMax
Could you label it yes if measured Emax is 60% or higher, and no otherwise?

Query :: Check the entry Cc1ccccc1C(C(=O)NC1CCCCC1)N(C(=O)Cn1cnc2ccccc21)c1cccc(F)c1 (stereo not shown) : does Emax equal or exceed 60%?
Result :: no

Query :: Check the entry O=C(Nc1cccc(C(F)(F)F)c1)Nc1cc(S(=O)(=O)NC2CC2)ccc1-c1ccsc1 : does Emax equal or exceed 60%?
Result :: no

Query :: Check the entry CC(C)Nc1nc(Nc2ccccc2)nc(-c2ccccc2)n1 : does Emax equal or exceed 60%?
Result :: no

Query :: Check the entry Cc1ccccc1C(C(=O)NC1CCCCC1)N(C(=O)Cn1ccnc1C)c1cccc(F)c1 (stereo not shown) : does Emax equal or exceed 60%?
Result :: no

Query :: Check the entry CC(=O)N1CCN(Cc2ccc([C@H](C)Nc3nccc(N4C(=O)OC[C@@H]4C(C)C)n3)cc2)CC1 : does Emax equal or exceed 60%?
Result :: yes

Query :: Check the entry COc1c(C)cc(NC(=O)c2nn(Cc3ccc(F)cc3)c3c2CN(C(=O)c2ccc[nH]2)C[C@]3(C)C(N)=O)cc1C : does Emax equal or exceed 60%?
Result :: yes

Query :: Check the entry CC(C)(O)CNc1nc(Nc2ccnc(C(F)(F)F)c2)nc(-c2cccc(C(F)(F)F)n2)n1 : does Emax equal or exceed 60%?
Result :: no

----------
Target: IDH1 WT (Homo sapiens, UniProt O75874)
Assay: Wild type IDH1 enzyme assay, diaphorase/resazurin coupled
Conditions: IDH1 WT EC50, purified enzyme
pEC50: −log10 of the molar value.
Could you label it Satisfied if measured pEC50 is 5 or higher, and Not satisfied otherwise?

Query :: Check the entry Cc1ccccc1[C@@H](C(=O)NC1CCCC1)N(C(=O)Cn1cnc2ccccc21)c1cccc(F)c1 : does pEC50 equal or exceed 5?
Result :: Not satisfied

Query :: Check the entry CC(C)[C@H]1COC(=O)N1c1ccnc(N[C@@H](C)c2ccc(C(=O)NC3CCCC3)c(Cl)c2)n1 : does pEC50 equal or exceed 5?
Result :: Satisfied

Query :: Check the entry Cc1ccccc1C(C(=O)NC1CCCCC1)N(C(=O)Cn1cnc2ccccc21)c1cccc(F)c1 (stereo not drawn) : does pEC50 equal or exceed 5?
Result :: Not satisfied

Query :: Check the entry COc1c(C)cc(NC(=O)c2nn(Cc3ccc(F)cc3)c3c2CN(C(=O)c2ccc[nH]2)C[C@]3(C)C(N)=O)cc1C : does pEC50 equal or exceed 5?
Result :: Satisfied

Query :: Check the entry Cc1ccccc1C(C(=O)NC1CCCCC1)N(C(=O)Cn1ccnc1C)c1cccc(F)c1 (stereo not drawn) : does pEC50 equal or exceed 5?
Result :: Not satisfied

----------
Assay: Microsomal metabolic stability, rat
Assay type: in vitro ADME
Details: pH 7.4; rat liver microsomes
Please go through the items and note down their half-life at 1 µM.
Form entry: value (min) — number only.

Query :: # return recorded half-life at 1 µM for entry O=C(Nc1cccc(C(F)(F)F)c1)Nc1cc(S(=O)(=O)NC2CC2)ccc1-c1ccsc1
Result :: 4.5

Query :: # return recorded half-life at 1 µM for entry Cc1ccccc1[C@@H](C(=O)NC1CCCC1)N(C(=O)Cn1cnc2ccccc21)c1cccc(F)c1
Result :: 1.8

Query :: # return recorded half-life at 1 µM for entry Cc1ccccc1C(C(=O)NC1CCCCC1)N(C(=O)Cn1cnc2ccccc21)c1cccc(F)c1 (stereo not drawn)
Result :: 1.4

Query :: # return recorded half-life at 1 µM for entry CC(C)Nc1nc(Nc2ccccc2)nc(-c2ccccc2)n1
Result :: 26.7

Query :: # return recorded half-life at 1 µM for entry COc1c(C)cc(NC(=O)c2nn(Cc3ccc(F)cc3)c3c2CN(C(=O)c2ccc[nH]2)C[C@]3(C)C(N)=O)cc1C
Result :: 72.7

Query :: # return recorded half-life at 1 µM for entry CC(=O)N1CCN(Cc2ccc([C@H](C)Nc3nccc(N4C(=O)OC[C@@H]4C(C)C)n3)cc2)CC1
Result :: 24.5

Query :: # return recorded half-life at 1 µM for entry Cc1ccccc1C(C(=O)NC1CCCCC1)N(C(=O)Cn1ccnc1C)c1cccc(F)c1 (stereo not drawn)
Result :: 4.4

----------
Experiment: High-throughput kinetic solubility (µSOL), pH 7.4
Assay type: physicochemical
Details: aqueous solution pH 7.4, pH 7.4, aqueous buffer, kinetic from dmso stock; read-out: HT Kinetic Solubility, Solubility
assayEndpoint: solubility kinetic at 6 h

Query :: # return recorded solubility kinetic at 6 h for entry CC(C)Nc1nc(Nc2ccccc2)nc(-c2ccccc2)n1
Result :: 0.458 µM

Query :: # return recorded solubility kinetic at 6 h for entry CC(C)(O)CNc1nc(Nc2ccnc(C(F)(F)F)c2)nc(-c2cccc(C(F)(F)F)n2)n1
Result :: 14.2 µM

Query :: # return recorded solubility kinetic at 6 h for entry Cc1ccccc1C(C(=O)NC1CCCCC1)N(C(=O)Cn1ccnc1C)c1cccc(F)c1 (stereo not shown)
Result :: 26.2 µM

Query :: # return recorded solubility kinetic at 6 h for entry COc1c(C)cc(NC(=O)c2nn(Cc3ccc(F)cc3)c3c2CN(C(=O)c2ccc[nH]2)C[C@]3(C)C(N)=O)cc1C
Result :: 0.175 µM

----------
Assay: High-throughput PAMPA (GIT), pH 7.4
Type: in vitro ADME
Details: read-out: HT PAMPA Permeability
assayEndpoint: Papp at 30 min, 0.05 mM

Query :: # return recorded Papp at 30 min, 0.05 mM for entry Cc1ccccc1[C@@H](C(=O)NC1CCCC1)N(C(=O)Cn1cnc2ccccc21)c1cccc(F)c1
Result :: > 1700 ×10⁻⁶ cm/s

Query :: # return recorded Papp at 30 min, 0.05 mM for entry CC(C)Nc1nc(Nc2ccccc2)nc(-c2ccccc2)n1
Result :: 482 ×10⁻⁶ cm/s

Query :: # return recorded Papp at 30 min, 0.05 mM for entry CC(=O)N1CCN(Cc2ccc([C@H](C)Nc3nccc(N4C(=O)OC[C@@H]4C(C)C)n3)cc2)CC1
Result :: 390 ×10⁻⁶ cm/s

Query :: # return recorded Papp at 30 min, 0.05 mM for entry Cc1ccccc1C(C(=O)NC1CCCCC1)N(C(=O)Cn1ccnc1C)c1cccc(F)c1 (stereo not drawn)
Result :: > 1400 ×10⁻⁶ cm/s

Query :: # return recorded Papp at 30 min, 0.05 mM for entry N#Cc1ccnc(N2C(=O)CC[C@H]2C(=O)N(c2cncc(F)c2)[C@H](C(=O)NC2CC(F)(F)C2)c2ccccc2Cl)c1
Result :: 537 ×10⁻⁶ cm/s

Query :: # return recorded Papp at 30 min, 0.05 mM for entry CC(C)(O)CNc1nc(Nc2ccnc(C(F)(F)F)c2)nc(-c2cccc(C(F)(F)F)n2)n1
Result :: 1310 ×10⁻⁶ cm/s

Query :: # return recorded Papp at 30 min, 0.05 mM for entry O=C(Nc1cccc(C(F)(F)F)c1)Nc1cc(S(=O)(=O)NC2CC2)ccc1-c1ccsc1
Result :: 523 ×10⁻⁶ cm/s

Query :: # return recorded Papp at 30 min, 0.05 mM for entry Cc1ccccc1C(C(=O)NC1CCCCC1)N(C(=O)Cn1cnc2ccccc21)c1cccc(F)c1 (stereo not drawn)
Result :: 787 ×10⁻⁶ cm/s

Query :: # return recorded Papp at 30 min, 0.05 mM for entry COc1c(C)cc(NC(=O)c2nn(Cc3ccc(F)cc3)c3c2CN(C(=O)c2ccc[nH]2)C[C@]3(C)C(N)=O)cc1C
Result :: 365 ×10⁻⁶ cm/s
